Target: UniProt P51449
Sequence (P51449 269-508 limits assumed): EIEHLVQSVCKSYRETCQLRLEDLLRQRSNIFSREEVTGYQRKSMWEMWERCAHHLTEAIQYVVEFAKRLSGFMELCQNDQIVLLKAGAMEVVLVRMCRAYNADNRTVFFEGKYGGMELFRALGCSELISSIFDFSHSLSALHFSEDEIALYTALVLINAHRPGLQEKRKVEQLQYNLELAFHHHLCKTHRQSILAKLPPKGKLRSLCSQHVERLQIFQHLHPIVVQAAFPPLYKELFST
Assay: Gal4 ligand binding assay (RORγt Gal fusion reporter assay)
Settings: inverse agonists, luciferase reporter, 24h
pIC50: −log10 of the molar value.
Assay Readout: pIC50

>  <Compound>
CC(C)c1cc(CN2CC3CCC(C2)N3S(C)(=O)=O)c(F)cc1-c1ccc(C(O)(C(F)(F)F)C(F)(F)F)cc1Cl

>  <Test Value>
> 7.30

$$$$
>  <Compound>
Cc1cc(CN2CC3CCC2CN3S(C)(=O)=O)ccc1-c1ccc(C(O)(C(F)(F)F)C(F)(F)F)cc1 (stereo not shown)

>  <Test Value>
< 6.60

$$$$
>  <Compound>
CCc1c(-c2ccc(C(O)(C(F)(F)F)C(F)(F)F)cc2Cl)cc(F)c(CN2CC3CCC(C2)N3S(C)(=O)=O)c1F

>  <Test Value>
> 7.30

$$$$

## Task Recorded pIC50 for "Cc1cc(CN2CC3CCC(C2)N3S(=O)(=O)C2CC2)ccc1-c1ccc(C(O)(C(F)(F)F)C(F)(F)F)cc1" , please?
## Result 6.60 to 7.30

* * *

Biological target: UniProtKB P51449
Test: Gal4 ligand binding assay (RORγt Gal fusion reporter assay)
Settings: inverse agonists, luciferase reporter, 24h
IC50 for assorted molecules

Examples from the recorded data:
>  <Molecule>
CCc1c(-c2ccc(C(O)(C(F)(F)F)C(F)(F)F)cc2F)cc(F)c(CN2CC3CCC(C2)N3S(C)(=O)=O)c1F [Example 13]

>  <IC50>
< 50 nM

$$$$
>  <Molecule>
CCCS(=O)(=O)N1C2CCC1CN(Cc1ccc(-c3ccc(C(O)(C(F)(F)F)C(F)(F)F)cc3)c(C)c1)C2 [Example 68]

>  <IC50>
> 250 nM

$$$$
>  <Molecule>
Cc1cc(CN2CC3CCC(C2)N3Cc2ccncn2)ccc1-c1ccc(C(O)(C(F)(F)F)C(F)(F)F)cc1 [Example 47]

>  <IC50>
< 50 nM

$$$$

## Task IC50 of CC(=O)N1C2CCC1CN(Cc1ccc(-c3ccc(C(O)(C(F)(F)F)C(F)(F)F)cc3)c(C)c1)C2 [Example 71] on UniProtKB P51449?
## Result 50 to 250 nM

* * *

Target: RORγt (Homo sapiens, UniProt P51449)
Assay: Gal4 ligand binding assay (RORγt Gal fusion reporter assay)
Details: inverse agonists, luciferase reporter, 24h
IC50 for assorted compounds

Examples from the recorded data:
>  <Compound>
Cc1cc(CN2CC3CCC(C2)N3S(=O)(=O)C(F)(F)F)ccc1-c1ccc(C(O)(C(F)(F)F)C(F)(F)F)cc1 [Example 60]

>  <IC50>
> 250 nM

$$$$
>  <Compound>
CC(C)c1cc(CN2CC3CCC(C2)N3S(C)(=O)=O)ccc1-c1ccc(C(O)(C(F)(F)F)C(F)(F)F)cc1F [Example 21]

>  <IC50>
50 to 250 nM

$$$$
>  <Compound>
Cc1cc(CN2CC3CCC(C2)N3C(=O)Cc2c(F)cccc2F)ccc1-c1ccc(C(O)(C(F)(F)F)C(F)(F)F)cc1 [Example 74]

>  <IC50>
> 250 nM

$$$$

## Task IC50 of OC(c1ccc(-c2ccc(CN3CC4CCC(C3)N4Cc3ccncc3)cc2Cl)cc1)(C(F)(F)F)C(F)(F)F [Example 56] on RORγt (Homo sapiens, UniProt P51449)?
## Result < 50 nM

## Task IC50 of CCc1cc(CN2CC3CCC(C2)N3Cc2ccncc2)ccc1-c1ccc(C(O)(C(F)(F)F)C(F)(F)F)cc1 [Example 53] on RORγt (Homo sapiens, UniProt P51449)?
## Result < 50 nM

## Task IC50 of CCc1cc(CN2CC3CCC(C2)N3S(C)(=O)=O)ccc1-c1ccc(C(O)(C(F)(F)F)C(F)(F)F)cc1C(N)=O [Example 31] on RORγt (Homo sapiens, UniProt P51449)?
## Result > 250 nM

## Task IC50 of Cc1cc(CN2CC3CCC(C2)C3NS(C)(=O)=O)ccc1-c1ccc(C(O)(C(F)(F)F)C(F)(F)F)cc1 (stereo not shown) [Example 46] on RORγt (Homo sapiens, UniProt P51449)?
## Result > 250 nM

All values here come from patent US11230555B2.
